test system: Jurkat (clone E6-1) cells with NFAT luciferase reporter; experiment: Jurkat reporter assay (NFAT Luciferase); type: cell-based; settings: Homo sapiens; Jurkat NFAT luciferase reporter cells, anti-CD3 stimulation, 6 hr; read-out: Jurkat NFAT EC50
measured parameter: EC50

Solved entries:
1. CO[C@@H](C)CNCc1cc(F)c2oc(-c3cc(-c4ccc(F)cc4-c4nncn4C)cc(C4CC4)n3)nc2c1 [AFO-2]    200 to 1000 nM
2. Cn1cnnc1-c1cc(F)ccc1-c1cccc(-c2nc3cc(CN4C[C@@H]5C[C@H]4CO5)cc(C(F)(F)F)c3o2)c1 [IN-2]    1000 to 10000 nM
3. COCCNCc1ccc2oc(-c3cccc(-c4ccc(F)cc4-c4nncn4C)c3)nc2c1 [DZ-1]    1000 to 10000 nM

stdin: Name the reported EC50 value associated with the molecule Cn1cnnc1-c1cc(F)ccc1-c1cccc(-c2nc3cc(CNCC4(O)COC4)cc(C(F)(F)F)c3[nH]2)c1 [BQ-1]
stdout: 200 to 1000 nM

----------
test system: Jurkat (clone E6-1) cells with NFAT luciferase reporter; assay: Jurkat reporter assay (NFAT Luciferase); assay type: cell-based; settings: Homo sapiens; Jurkat NFAT luciferase reporter cells, anti-CD3 stimulation, 6 hr; read-out: Jurkat NFAT EC50
Reported EC50 is given for each of the following compounds.

Solved entries:
1. C[C@H]1CCCN(Cc2cc(C(F)(F)F)c3[nH]c(-c4cccc([C@]5(c6nncn6C)C[C@@H](C)C5)c4)nc3c2)C1 [AAX-12]    1000 to 10000 nM
2. CC[C@H](O)CNCc1cc(C(F)(F)F)c2oc(-c3cccc(-c4ccc(F)cc4-c4nncn4C)c3)nc2c1 [DG-2]    < 200 nM
3. Cn1cnnc1-c1cc(F)ccc1-c1cc(-c2nc3cc(CNCC4CCC4)cc(F)c3o2)nc(C2CC2)c1 [AGT-1]    < 200 nM
4. Cn1cnnc1-c1cc(F)ccc1-c1cccc(-c2nc3cc(CNC[C@@H]4CCC(=O)N4)cc(C(F)(F)F)c3o2)c1 [CU-2]    200 to 1000 nM
5. Cn1cnnc1-c1cc(F)ccc1-c1cccc(-c2nc3cc(CN[C@@H]4CCC[C@H]4O)cc(C(F)(F)F)c3o2)c1 [Example W-2]    200 to 1000 nM
6. Cn1cnnc1-c1cc(Cl)ccc1-c1ccnc(-c2nc3cc(CN[C@@H]4CCC[C@@H]4O)cc(C(F)(F)F)c3o2)c1 [AER-8]    < 200 nM
7. Cn1cnnc1-c1cc(F)ccc1-c1cccc(-c2nc3cc(CNCC4CCC4)c(F)c(F)c3o2)c1 [IX-1]    < 200 nM
8. CN(Cc1cc(C(F)(F)F)c2oc(-c3cc(-c4ccc(F)cc4-c4nncn4C)cc(C4CC4)n3)nc2c1)[C@@H]1CCC[C@@H]1O [AEW-1]    < 200 nM

Now take the following compound into account.
stdin: Give Jurkat (clone E6-1) cells with NFAT luciferase reporter EC50 for Cn1cnnc1-c1cc(F)ccc1-c1cccc(-c2nc3cc(CN[C@@H]4CCC[C@@H]4O)c(F)cc3o2)c1 [IP-7]
stdout: < 200 nM

----------
biological target: Recombinant human c-Cbl (aa 47-435) (Homo sapiens, UniProt P22681); assay: c-Cbl Biochemical Assay (TR-FRET); settings: hc-Cbl Biochemical Assay (TR-FRET); read-out: TR-FRET hcCbl IC50
Sequence (P22681 47-435): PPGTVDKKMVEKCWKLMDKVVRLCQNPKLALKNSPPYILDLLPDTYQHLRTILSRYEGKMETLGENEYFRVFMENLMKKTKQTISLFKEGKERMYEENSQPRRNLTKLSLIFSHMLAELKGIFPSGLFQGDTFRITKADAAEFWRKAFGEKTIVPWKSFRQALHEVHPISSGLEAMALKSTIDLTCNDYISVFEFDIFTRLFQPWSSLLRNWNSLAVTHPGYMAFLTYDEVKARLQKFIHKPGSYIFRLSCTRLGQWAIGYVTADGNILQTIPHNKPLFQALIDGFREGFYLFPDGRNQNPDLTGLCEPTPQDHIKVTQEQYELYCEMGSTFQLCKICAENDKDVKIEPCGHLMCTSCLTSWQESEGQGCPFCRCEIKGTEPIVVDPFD
Reported IC50 is given for each of the following compounds.

Solved entries:
1. Cn1cnnc1-c1cc(F)ccc1-c1cccc(-c2nc3cc(CN[C@@H]4C[C@H](O)C4(C)C)cc(C(F)(F)F)c3o2)c1    < 0.2 µM
2. Cn1cnnc1-c1ccccc1-c1cccc(-c2nc3cccc(C(F)(F)F)c3o2)c1    10 to 50 µM
3. Cn1cnnc1-c1cc(F)ccc1-c1cccc(-c2nc3cc(CN[C@@H]4CCC[C@@]4(C)O)cc(C(F)(F)F)c3o2)c1    < 0.2 µM
4. Cn1cnnc1-c1cc(F)ccc1-c1cc(C(=O)Nc2cc(CN3CCC4(CC4)C3)cc(C(F)(F)F)c2N)nc(C2CC2)c1    1 to 10 µM
5. C[C@H]1CCCN(C(=O)c2cc(C(F)(F)F)c3oc(-c4cccc(-c5ccccc5-c5nncn5C)c4)nc3c2)C1    10 to 50 µM

stdin: Name the reported IC50 value associated with the compound Cn1cnnc1-c1cc(C#N)ccc1-c1cc(-c2nc3cc(CNCC4CCC4)ccc3o2)nc(C2CC2)c1
stdout: < 0.2 µM

stdin: Entry Cn1cnnc1-c1cc(F)ccc1-c1cccc(-c2cn3ccc(CN[C@@H]4CCC[C@@H]4O)cc3n2)c1 please
stdout: < 0.2 µM

stdin: Entry Cn1cnnc1-c1cc(F)ccc1-c1cccc(-c2nc3cc(CN[C@@H]4CCC[C@@H]4O)cc(F)c3o2)c1 please
stdout: < 0.2 µM

stdin: Entry Cn1cnnc1-c1cc(F)ccc1-c1cc(-c2nc3cc(CNCC(C)(C)O)ccc3o2)nc(C2CC2)c1 please
stdout: < 0.2 µM
